Data credit: ChEMBL document CHEMBL1201862

Listing: GI50 of selected compounds
# Test system: SF-268
# Protocol Summary: NCI tumour cell line growth inhibition, 48 h
Active and inactive are the calls of the source. No stated cut-off is given here; in the data, active = GI50 up to about 1.1 µM and inactive = higher.

Reference set, count: 5
Compound: CSc1ccc(C(=O)C(=O)c2ccc(SC)s2)s1
Observed Value: > 10 µM (inactive)
//
Compound: CC(C)(C)c1cc(CCC(=O)Nc2ccc(Cl)cc2Cl)nc(N)n1
Observed Value: > 100 µM (inactive)
//
Compound: COCOc1c(C(OCOC)c2cnc(Sc3ccccc3)n2C)ccc(OC)c1OC (stereo unspecified)
Observed Value: > 100 µM (inactive)
//
Compound: O=C(O)C1CCC(=O)N1C(=O)COc1cc(Cl)c(Cl)cc1Cl (stereo unspecified)
Observed Value: > 100 µM (inactive)
//
Compound: NC(CCCCN/C=C1/N=C(c2ccccc2)OC1=O)C(=O)O (stereo unspecified)
Observed Value: > 100 µM (inactive)

Check the records and state GI50 for COc1cc(CNc2ccc(C)cc2)cc(OC)c1OC
0.741 µM (active)

Check the records and state GI50 for CN(CCCNC(=O)c1nn(-c2ccc(Cl)cc2Cl)c2c1ccc1ccccc12)CCCNC(=O)c1nn(-c2ccc(Cl)cc2Cl)c2c1ccc1ccccc12
1.61 µM (inactive)

Check the records and state GI50 for CC(=O)NNc1nc(C)c(C(=O)/C=C/c2ccccc2Cl)s1
> 100 µM (inactive)

----------
# System: CCRF-CEM
# Protocol Summary: NCI tumour cell line growth inhibition, 48 h
Calls of active or inactive are those of the source. Cut-off read from the data, not from the text of the source: active = GI50 up to about 1.1 µM and inactive = higher.
Listing: GI50 of selected molecules

Check the records and state GI50 for CC(C)(C)c1cc(CCC(=O)Nc2ccc(Cl)cc2Cl)nc(N)n1
> 100 µM (inactive)

Check the records and state GI50 for O=C1C(c2ccccc2)=C(c2ccccc2)C(c2ccc(Cc3ccc(C4=C(c5ccccc5)C(=O)C(c5ccccc5)=C4c4ccccc4)cc3)cc2)=C1c1ccccc1
> 100 µM (inactive)

Check the records and state GI50 for COC(=O)C1CCC(=O)N1C(c1ccccc1)c1ccc(OC)c(OC)c1 (centres undefined)
> 10 µM (inactive)

Check the records and state GI50 for Cc1ccc(C(=O)Nc2ccc(S(=O)(=O)O)c3cc(S(=O)(=O)O)cc(S(=O)(=O)O)c23)cc1N
> 100 µM (inactive)

----------
# Test system: HOP-62
# Protocol Summary: NCI tumour cell line growth inhibition, 48 h
The source made the active and inactive calls. No stated cut-off is given here; in the data, active = GI50 up to about 1.1 µM and inactive = higher.
Recorded Endpoint: GI50

Compound: COc1ccc(Nc2c[nH]c(=O)[nH]c2=O)cc1
GI50: > 100 µM (inactive)

Check the records and state GI50 for CN(/N=C(\C(=O)O)c1ccccc1)C1=NCCN1
> 100 µM (inactive)

----------
# Tested on: CCRF-CEM
# Protocol Summary: NCI tumour cell line growth inhibition, 48 h
Active and inactive are the calls of the source. Cut-off read from the data, not from the text of the source: active = GI50 up to about 1.1 µM and inactive = higher.
The reply should be one of these categories: 1.0 (active), 0.0 (inactive)

Record excerpt, results attached:
Molecule: O=C(CCCCCC(=O)N1CC(CCl)c2ccc([N+](=O)[O-])cc21)N1CC(CCl)c2ccc([N+](=O)[O-])cc21 (configuration not stated)
Target Of Assay: CCRF-CEM
Label Value: 0.0
--
Molecule: Cc1nc2c3c(ncn2n1)Oc1c(c(-c2ccccc2)nn1-c1ccccc1)C3c1ccc(Cl)cc1 (configuration not stated)
Target Of Assay: CCRF-CEM
Label Value: 0.0

Any idea what this test logged for COc1cc(OC)c2nccc(NCCCN(C)C)c2c1[N+](=O)[O-] ?
0.0

Any idea what this test logged for Cc1c2c(OCCCCN3CCN(c4ncccn4)CC3)nn(C)c(=O)c2c(C)n1-c1ccccc1 ?
0.0

Any idea what this test logged for CC1C2CC(CC2=O)C1(C)C (configuration not stated) ?
0.0
